Molecular target: Protein skinhead-1 (Caenorhabditis elegans)
Sequence (P34707 whole entry): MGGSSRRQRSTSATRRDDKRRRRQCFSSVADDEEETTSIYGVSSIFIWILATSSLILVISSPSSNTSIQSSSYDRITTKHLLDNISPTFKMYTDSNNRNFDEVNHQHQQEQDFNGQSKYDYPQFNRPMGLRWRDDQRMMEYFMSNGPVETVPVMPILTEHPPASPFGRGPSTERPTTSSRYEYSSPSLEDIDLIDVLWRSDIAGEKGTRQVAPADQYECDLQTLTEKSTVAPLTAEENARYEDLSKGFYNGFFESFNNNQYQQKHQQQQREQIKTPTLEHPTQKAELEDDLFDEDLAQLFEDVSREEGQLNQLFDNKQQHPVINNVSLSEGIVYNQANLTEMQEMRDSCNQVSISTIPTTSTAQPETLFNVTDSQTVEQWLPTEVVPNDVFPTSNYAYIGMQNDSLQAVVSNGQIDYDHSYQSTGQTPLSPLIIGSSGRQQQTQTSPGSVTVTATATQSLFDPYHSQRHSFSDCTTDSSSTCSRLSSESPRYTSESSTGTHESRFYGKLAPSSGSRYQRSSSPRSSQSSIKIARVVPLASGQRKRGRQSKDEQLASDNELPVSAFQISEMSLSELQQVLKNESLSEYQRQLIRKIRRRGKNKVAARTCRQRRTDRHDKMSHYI
Assay type: functional
Calls of active or inactive are those of the source.
Classes used: active, inactive

>>> label_value("CCN(CC(=O)Nc1ccccc1C(F)(F)F)C(=O)c1ccc(NC(=O)c2cccs2)cc1")
"inactive"
>>> label_value("CCC(=O)c1ccc(OCC(O)CN2CCN(S(=O)(=O)N3CCCCC3)CC2)cc1 (stereo not drawn)")
"inactive"
>>> label_value("CCCn1nc2cc(C(=O)NCc3ccc(OC(F)(F)F)cc3)ccc2c1OCC")
"active"

----------
Biological target: Cytochrome P450 2C9 (Homo sapiens, UniProt P11712)
Sequence (P11712 whole entry): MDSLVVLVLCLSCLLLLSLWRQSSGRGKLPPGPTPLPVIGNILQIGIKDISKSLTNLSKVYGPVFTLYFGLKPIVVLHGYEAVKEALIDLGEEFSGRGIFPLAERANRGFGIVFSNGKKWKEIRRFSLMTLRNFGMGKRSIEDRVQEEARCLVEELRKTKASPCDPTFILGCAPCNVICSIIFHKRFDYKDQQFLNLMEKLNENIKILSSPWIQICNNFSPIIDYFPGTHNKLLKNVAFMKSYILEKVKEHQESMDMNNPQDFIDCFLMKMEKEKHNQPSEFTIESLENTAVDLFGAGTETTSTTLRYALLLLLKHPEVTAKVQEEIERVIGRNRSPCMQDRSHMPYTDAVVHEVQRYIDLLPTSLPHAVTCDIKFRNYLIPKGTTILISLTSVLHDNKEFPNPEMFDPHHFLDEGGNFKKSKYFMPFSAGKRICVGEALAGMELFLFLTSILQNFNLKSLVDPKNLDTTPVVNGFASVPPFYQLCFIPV
Item-by-item account of AC50
readout.type: AC50

>>> assay_value("CC(=N)/C(C#N)=C(/O)COc1ncnc2ccc(Br)cc12")
"11.2 µM (inconclusive)"
>>> assay_value("CCCCc1ccc(-c2csc(/C(C#N)=C/c3ccc(C)o3)n2)cc1")
"3.16 µM (inconclusive)"
>>> assay_value("CC1(C)c2ssc(=S)c2-c2ccccc2N1C(=O)CSC1=NCCS1")
"2.82 µM (inconclusive)"
>>> assay_value("O=C(O)[C@@H](S)[C@H](S)C(=O)O")
"3.98 µM (inconclusive)"
>>> assay_value("O=C(O)CCCCCNC(=O)c1ccncc1")
"25.1 µM (inconclusive)"
>>> assay_value("COc1ncc2nc(-c3cccs3)c(=O)n(C)c2n1")
"12.6 µM (inconclusive)"
>>> assay_value("Cc1oc(-c2ccccc2)cc1C(=O)Nc1ccc(N(C)C)cc1")
"25.1 µM (inconclusive)"
>>> assay_value("Cc1cc(C)c(NC(=O)C[S+]([O-])CC(=O)NCCCc2ccccc2)c(C)c1 (stereo not drawn)")
"28.2 µM (inconclusive)"

----------
Heads up, these molecules all have AC50 values measured for Cytochrome P450 3A4 (Homo sapiens, UniProt P08684).
readout.type: AC50

>>> assay_value("CN1CCN(c2ccnc(-c3ccc(N(C)C)cc3)n2)CC1")
"15.8 µM (inconclusive)"
>>> assay_value("Cn1cc(-c2nc3cnc(N4CCOCC4)nc3n(C3CC3)c2=O)c2ccccc21")
"7.94 µM (inconclusive)"
>>> assay_value("COc1ccc(-c2nc(CSCC(=O)NCC3CCCO3)c(C)o2)cc1OC (stereo unspecified)")
"39.8 µM (inconclusive)"
>>> assay_value("O=C(Nc1ccccc1)N1CCCC2(CCNCC2)C1")
"20 µM (inconclusive)"
>>> assay_value("CN1CC[C@@]2(CCN3CCc4c(oc5ccccc45)[C@@H]3C2)N(C)C1=O")
"12.6 µM (inconclusive)"
>>> assay_value("N#CCCn1c(=O)c(CCc2ccccc2)nc2cnc(OCc3ccccc3)nc21")
"0.2 µM (inconclusive)"
